# System: HIV-2 strain (ROD)
# Protocol notes: Inhibition of replication of HIV-2 (ROD strain) in MT-4 cells, MTT assay
# Assay type: cell-based
# Experimental conditions: Human immunodeficiency virus 2, MT4, 120 h; MT-4 cells, MTT assay, five days after infection, 50% protection from cytopathic effect; read-out: EC50 (μM) HIV-2 (ROD)

| Compound | Assayed target | EC50 |
| --- | --- | --- |
| CCOc1nc(N)nc2sc(Cc3ccc(F)cc3)nc12 | HIV-2 strain (ROD) | > 411 µM |
| NC(=O)c1nc(N2CCN(C(=O)COc3ccc(Cl)cc3)CC2)c2cc(-c3ccc(F)cc3)sc2n1 | HIV-2 strain (ROD) | > 150 µM |
| Nc1nc(N2CCN(C(=O)COc3ccc(F)cc3)CC2)c2nc(CCc3ccc(F)cc3)sc2n1 | HIV-2 strain (ROD) | > 210 µM |
| NC(=O)Cc1nc(N2CCN(C(=O)COc3ccc(Cl)cc3)CC2)c2cc(-c3ccc(F)cc3)sc2n1 | HIV-2 strain (ROD) | > 19.1 µM |
| O=C(O)c1nc(N2CCN(C(=O)COc3ccc(Cl)cc3)CC2)c2cc(-c3ccc(F)cc3)sc2n1 | HIV-2 strain (ROD) | > 237 µM |
| Nc1nc(N2CCN(c3nccs3)CC2)c2nc(-c3ccc(F)cc3)sc2n1 | HIV-2 strain (ROD) | > 36.4 µM |
| CC(c1ccc(F)cc1)c1nc2c(N3CCN(C(=O)COc4ccc(Cl)cc4)CC3)nc(N)nc2s1 (stereo not drawn) | HIV-2 strain (ROD) | > 50 µM |
| CCOc1nc(N)nc2sc(-c3ccc(F)cc3)nc12 | HIV-2 strain (ROD) | > 373 µM |
| Nc1nc(N2CCN(C(=O)COc3ccc(Cl)cc3)CC2)c2nc(Cc3ccc(F)cc3)sc2n1 | HIV-2 strain (ROD) | 1.15 µM |
| Nc1nc(N2CCN(C(=O)COc3ccc(Cl)cc3)CC2)c2cc(-c3ccc(F)cc3)sc2n1 | HIV-2 strain (ROD) | 4.84 µM |
| Cc1cccc(NC(=O)N2CCN(c3nc(N)nc4sc(-c5ccc(F)cc5)nc34)CC2)c1 | HIV-2 strain (ROD) | 0.39 µM |
| Cc1cccc(NC(=O)N2CCN(c3nc(N)nc4sc(Cc5ccc(F)cc5)nc34)CC2)c1 | HIV-2 strain (ROD) | 0.85 µM |
| Cc1nc(N2CCN(C(=O)COc3ccc(Cl)cc3)CC2)c2cc(-c3ccc(F)cc3)sc2n1 | HIV-2 strain (ROD) | > 208 µM |
| Cc1nc(N2CCN(C(=O)COc3ccc(Cl)cc3)CC2)c2nc(-c3ccc(F)cc3)sc2n1 | HIV-2 strain (ROD) | > 50 µM |
| Nc1nc(N2CCN(C(=O)COc3ccc(Cl)cc3)CC2)c2nc(-c3ccc(F)cc3)sc2n1 | HIV-2 strain (ROD) | 0.45 µM |
| Nc1nc(N2CCN(C(=O)COc3ccc(Cl)cc3Cl)CC2)c2nc(CCc3ccc(F)cc3)sc2n1 | HIV-2 strain (ROD) | > 157 µM |
| Nc1nc(N2CCOCC2)c2nc(-c3ccc(F)cc3)sc2n1 | HIV-2 strain (ROD) | 141 µM |
| Cc1cccc(NC(=O)N2CCN(c3nc(N)nc4sc(-c5ccc(F)cc5)cc34)CC2)c1 | HIV-2 strain (ROD) | 10.4 µM |
| Nc1nc(N2CCOCC2)c2nc(Cc3ccc(F)cc3)sc2n1 | HIV-2 strain (ROD) | > 362 µM |
| CCOC(=O)c1nc(N2CCN(C(=O)COc3ccc(Cl)cc3)CC2)c2cc(-c3ccc(F)cc3)sc2n1 | HIV-2 strain (ROD) | > 68.5 µM |
| Cc1nc(N2CCN(C(=O)COc3ccc(Cl)cc3)CC2)c2nc(-c3ccc(F)cc3)oc2n1 | HIV-2 strain (ROD) | > 50 µM |
| COc1ccc(OCC(=O)N2CCN(c3nc(N)nc4sc(CCc5ccc(F)cc5)nc34)CC2)cc1 | HIV-2 strain (ROD) | > 212 µM |
| Nc1nc(N2CCN(C(=O)COc3ccc(Cl)cc3)CC2)c2nc(C(Cc3ccccc3)c3ccc(F)cc3)sc2n1 (stereo not drawn) | HIV-2 strain (ROD) | > 50 µM |
| Cc1cccc(OCC(=O)N2CCN(c3nc(N)nc4sc(CCc5ccc(F)cc5)nc34)CC2)c1 | HIV-2 strain (ROD) | > 7.96 µM |
| Cc1ccc(NC(=O)N2CCN(c3nc(N)nc4sc(-c5ccc(F)cc5)nc34)CC2)cc1 | HIV-2 strain (ROD) | 0.98 µM |
| Nc1nc(N2CCN(S(=O)(=O)c3ccccc3)CC2)c2nc(-c3ccc(F)cc3)sc2n1 | HIV-2 strain (ROD) | > 237 µM |
| Nc1nc(N2CCNCC2)c2nc(-c3ccc(F)cc3)sc2n1 | HIV-2 strain (ROD) | > 1.8 µM |
| Cc1cccc(NC(=O)N2CCN(c3nc(-c4ccccc4)nc4sc(-c5ccc(F)cc5)cc34)CC2)c1 | HIV-2 strain (ROD) | > 239 µM |
| Nc1nc(SCc2ccccc2)c2nc(-c3ccc(F)cc3)sc2n1 | HIV-2 strain (ROD) | > 339 µM |
| O=C(COc1ccc(Cl)cc1)N1CCN(c2nc(-c3ccccc3)nc3sc(-c4ccc(F)cc4)cc23)CC1 | HIV-2 strain (ROD) | > 224 µM |
| Nc1nc(N2CCN(C(=O)CCOc3ccc(F)cc3)CC2)c2nc(CCc3ccc(F)cc3)sc2n1 | HIV-2 strain (ROD) | > 57.1 µM |
| O=C(COc1ccc(Cl)cc1)N1CCN(c2ncnc3oc(-c4ccc(F)cc4)nc23)CC1 | HIV-2 strain (ROD) | > 50 µM |
| CCCCCN1CCN(c2nc(N)nc3sc(-c4ccc(F)cc4)nc23)CC1 | HIV-2 strain (ROD) | 212 µM |

* * *

# System: hRV-39
# Protocol notes: Rhinovirus type 39 antiviral assay in Hela Rh cells, MTS readout
# Assay type: cell-based, Human rhinovirus
# Experimental conditions: Human rhinovirus sp., HRV39, HeLa Rh, Hela Rh cells; read-out: hRV-39 EC50
The reader will find reported EC50 values listed item by item below.

| Molecule smiles | Assayed target | Bound type | EC50 / µg/mL |
| --- | --- | --- | --- |
| COc1ccc(OCC(=O)N2CCN(c3nc(N)nc4sc(-c5ccc(C)cc5)nc34)CC2)cc1 | hRV-39 | < | 0.02 |
| Cc1ccc(CCc2nc3c(N4CCN(C(=O)COc5ccc(Br)cc5)CC4)nc(N)nc3s2)cc1 | hRV-39 | = | 13 |
| Nc1nc(N2CCN(C(=O)COc3cccc([N+](=O)[O-])c3)CC2)c2nc(CCc3ccc(F)cc3)sc2n1 | hRV-39 | = | 1.52 |
| Nc1nc(N2CCN(C(=O)COc3ccc(F)cc3)CC2)c2nc(-c3ccc(F)cc3)sc2n1 | hRV-39 | < | 0.02 |

* * *

# Protocol notes: Cytostatic/cytotoxic effect in Hela Rh cells (rhinovirus methodology, MTS)
# Experimental conditions: human, CC50, Hela Rh cells
The reader will find reported CC50 values listed item by item below.

| Molecule smiles | CC50 |
| --- | --- |
| Cc1ccc(CCc2nc3c(N4CCN(C(=O)COc5ccc(Br)cc5)CC4)nc(N)nc3s2)cc1 | 46.2 µg/mL |
| COc1ccc(OCC(=O)N2CCN(c3nc(N)nc4sc(-c5ccc(F)cc5)nc34)CC2)cc1 | > 50 µg/mL |
| CCCCCc1nc2c(N3CCN(C(=O)COc4ccc(Cl)cc4)CC3)nc(N)nc2s1 | > 50 µg/mL |
| CC(=O)c1ccc(OCC(=O)N2CCN(c3nc(N)nc4sc(CCc5ccc(F)cc5)nc34)CC2)cc1 | > 50 µg/mL |

* * *

# System: hRV-39
# Protocol notes: Rhinovirus type 39 antiviral assay in Hela Rh cells, MTS readout
# Assay type: cell-based, Human rhinovirus
# Experimental conditions: Human rhinovirus sp., HRV39, HeLa Rh, Hela Rh cells; read-out: hRV-39 EC50
Field: label. Allowed values: True (EC50 < 0.3 µg/mL) or False (EC50 >= 0.3 µg/mL).

| Molecule | Label value |
| --- | --- |
| COc1ccc(OCC(=O)N2CCN(c3nc(N)nc4sc(-c5ccc(F)cc5)nc34)CC2)cc1 [Example 234] | True |
| Nc1nc(N2CCN(C(=O)COc3ccc(Cl)cc3)CC2)c2nc(CCCc3ccc(F)cc3)sc2n1 [Example 290] | False |
| Nc1nc(N2CCN(C(=O)COc3ccc(OC(F)(F)F)cc3)CC2)c2nc(CCc3ccc(F)cc3)sc2n1 [Example 226] | False |
| COc1cccc(CCc2nc3c(N4CCN(C(=O)COc5ccc(Br)cc5)CC4)nc(N)nc3s2)c1 [Example 254] | False |
| COc1ccc(CCc2nc3c(N4CCN(C(=O)COc5ccc(Br)cc5)CC4)nc(N)nc3s2)cc1OC [Example 256] | False |
| Cc1ccc(CCc2nc3c(N4CCN(C(=O)COc5ccc(Cl)cc5)CC4)nc(N)nc3s2)cc1 [Example 260] | False |
| Nc1nc(N2CCN(C(=O)COc3ccc(O)cc3)CC2)c2nc(CCc3ccc(F)cc3)sc2n1 [Example 224] | False |
| CCCCCc1nc2c(N3CCN(C(=O)COc4ccc(Cl)cc4)CC3)nc(N)nc2s1 [Example 297] | True |
| COC(=O)c1ccc(OCC(=O)N2CCN(c3nc(N)nc4sc(CCc5ccc(F)cc5)nc34)CC2)cc1 [Example 225] | False |
| COc1ccc(OCC(=O)N2CCN(c3nc(N)nc4sc(CCCCc5ccc(F)cc5)nc34)CC2)cc1 [Example 293] | False |
| Nc1nc(N2CCN(C(=O)COc3ccc(Br)cc3)CC2)c2nc(CCc3ccc(F)cc3)sc2n1 [Example 52] | False |
| COc1ccc(OCC(=O)N2CCN(c3nc(N)nc4sc(Cc5ccc(F)cc5)nc34)CC2)cc1 [Example 230] | True |
| CCCCCc1nc2c(N3CCN(C(=O)COc4ccc(OC)cc4)CC3)nc(N)nc2s1 [Example 296] | True |
| Nc1nc(N2CCN(C(=O)COc3cccc(Cl)c3)CC2)c2nc(CCc3ccc(F)cc3)sc2n1 [Example 228] | False |
| COc1cccc(CCc2nc3c(N4CCN(C(=O)COc5ccc(Cl)cc5)CC4)nc(N)nc3s2)c1 [Example 255] | False |
| COc1ccc(OCC(=O)N2CCN(c3nc(N)nc4sc(CCc5ccc(C)cc5)nc34)CC2)cc1 [Example 259] | False |
| Nc1nc(N2CCN(C(=O)COc3ccc(Cl)cc3)CC2)c2nc(CCCCc3ccc(F)cc3)sc2n1 [Example 292] | False |
